System: Mycolicibacterium smegmatis
assay_comment: Antitubercular activity against Mycobacterium smegmatis mc2155 ATCC 700084 cultured in GAST media incubated for 24 hrs by resazurin microtiter assay
Format: functional
quantity: log10 MIC90 (log10 of the value in µg/mL)

>>> print(df.to_string())
                                   compound     quantity  reported_result
0  Oc1ccccc1C1=NNC(c2ccccc2Br)C1 (stereo unspecified)  log10 MIC90             0.90
1  Oc1ccccc1C1=NNC(c2cccc(F)c2)C1 (stereo unspecified)  log10 MIC90             1.20
2  Oc1ccccc1C1=NNC(c2ccccc2F)C1 (stereo unspecified)  log10 MIC90             0.90
3  Oc1ccccc1C1=NNC(c2ccc(Cl)cc2)C1 (stereo unspecified)  log10 MIC90             0.60
4  Oc1ccccc1C1=NNC(c2ccc(Br)cc2)C1 (stereo unspecified)  log10 MIC90             0.60
5  CC(=O)N1N=C(c2ccccc2O)CC1c1ccccc1F (stereo unspecified)  log10 MIC90             2.41
6  COc1ccccc1C1CC(c2ccccc2O)=NN1C(N)=S (stereo unspecified)  log10 MIC90             2.41
7  NC(=S)N1N=C(c2ccccc2O)CC1c1ccccc1F (stereo unspecified)  log10 MIC90             2.11
8  Oc1ccccc1C1=NNC(c2ccccc2Cl)C1 (stereo unspecified)  log10 MIC90             0.90
9  NC(=S)N1N=C(c2ccccc2O)CC1c1cccc(O)c1 (stereo unspecified)  log10 MIC90             2.11

###

Test system: Mycolicibacterium smegmatis
assay_comment: Antitubercular activity against Mycobacterium smegmatis mc2155 ATCC 700084 cultured in GAST media incubated for 24 hrs by resazurin microtiter assay
Assay type: functional
quantity: MIC90 (µg/mL)

                                    compound          experimental_system  unit_text  inequality_operator  reported_result
 0  NC(=S)N1N=C(c2ccccc2O)CC1c1ccc(Cl)cc1 (configuration not stated)  Mycolicibacterium smegmatis      µg/mL                    =              128
 1  NC(=S)N1N=C(c2ccccc2O)CC1c1ccccc1 (configuration not stated)  Mycolicibacterium smegmatis      µg/mL                    =              128
 2  Oc1cccc(C2CC(c3ccccc3O)=NN2)c1 (configuration not stated)  Mycolicibacterium smegmatis      µg/mL                    =               64
 3               NNC(=O)c1ccncc1 [ISONIAZID]  Mycolicibacterium smegmatis      µg/mL                    =                2
 4  COc1ccc(C2CC(c3ccccc3O)=NN2C(N)=S)cc1 (configuration not stated)  Mycolicibacterium smegmatis      µg/mL                    =              128
 5  Cc1ccc(C2CC(c3ccccc3O)=NN2)cc1 (configuration not stated)  Mycolicibacterium smegmatis      µg/mL                    =               16
 6  COc1ccccc1C1CC(c2ccccc2O)=NN1 (configuration not stated)  Mycolicibacterium smegmatis      µg/mL                    =               64
 7  NC(=S)N1N=C(c2ccccc2O)CC1c1ccccc1Cl (configuration not stated)  Mycolicibacterium smegmatis      µg/mL                    =              256
 8  CC(=O)N1N=C(c2ccccc2O)CC1c1cccc(O)c1 (configuration not stated)  Mycolicibacterium smegmatis      µg/mL                    >              256
 9  COc1ccc(C2CC(c3ccccc3O)=NN2C(N)=S)cc1O (configuration not stated)  Mycolicibacterium smegmatis      µg/mL                    =              128
10  CC(=O)N1N=C(c2ccccc2O)CC1c1ccc(F)cc1 (configuration not stated)  Mycolicibacterium smegmatis      µg/mL                    =              128
11  CC(=O)N1N=C(c2ccccc2O)CC1c1cccc(F)c1 (configuration not stated)  Mycolicibacterium smegmatis      µg/mL                    =              128
